tested_target: hA2B receptors expressed in CHO cells (Homo sapiens, UniProt P29275)
Sequence (P29275 whole entry): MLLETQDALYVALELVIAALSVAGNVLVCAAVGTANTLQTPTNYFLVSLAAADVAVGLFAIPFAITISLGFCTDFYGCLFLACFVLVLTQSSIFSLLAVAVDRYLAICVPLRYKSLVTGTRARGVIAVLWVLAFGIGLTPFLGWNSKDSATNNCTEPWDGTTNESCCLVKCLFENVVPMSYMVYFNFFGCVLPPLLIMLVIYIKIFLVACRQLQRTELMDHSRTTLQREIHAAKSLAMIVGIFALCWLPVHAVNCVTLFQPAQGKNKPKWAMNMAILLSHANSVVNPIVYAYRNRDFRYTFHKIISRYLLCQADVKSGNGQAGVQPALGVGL
assay_summary: cAMP assay hA2B CHO cells
stated_conditions: stimulation of cAMP levels, hA2B CHO cells; mean ± s.e. mean
readout_type: EC50

Ask | GET /values?readout=EC50&system=hA2B receptors expressed in CHO cells (Homo sapiens, UniProt P29275)&item= CCNC(=O)[C@H]1O[C@@H](n2cnc3c(NNC(=O)Cc4cccs4)nc(Cl)nc32)[C@H](O)[C@@H]1O [Compound 20b]
Reply | 603 nM

Ask | Form field - read-out: EC50; system: hA2B receptors expressed in CHO cells (Homo sapiens, UniProt P29275); submitted item: CCNC(=O)[C@H]1O[C@@H](n2cnc3c(NNC(=O)c4cc(-c5ccccc5)on4)nc(Cl)nc32)[C@H](O)[C@@H]1O [Compound 26b]
Reply | > 1000 nM

Ask | What is its EC50 for hA2B receptors expressed in CHO cells (Homo sapiens, UniProt P29275)? Entry: CCNC(=O)[C@H]1O[C@@H](n2cnc3c(NNC(=O)c4ccccc4)nc(Cl)nc32)[C@H](O)[C@@H]1O [Compound 17b]
Reply | > 1000 nM
